Data origin: ChEMBL document CHEMBL1136256

# measured-target: 5-hydroxytryptamine receptor 1A (Rattus norvegicus)
# Sequence (P19327 whole entry): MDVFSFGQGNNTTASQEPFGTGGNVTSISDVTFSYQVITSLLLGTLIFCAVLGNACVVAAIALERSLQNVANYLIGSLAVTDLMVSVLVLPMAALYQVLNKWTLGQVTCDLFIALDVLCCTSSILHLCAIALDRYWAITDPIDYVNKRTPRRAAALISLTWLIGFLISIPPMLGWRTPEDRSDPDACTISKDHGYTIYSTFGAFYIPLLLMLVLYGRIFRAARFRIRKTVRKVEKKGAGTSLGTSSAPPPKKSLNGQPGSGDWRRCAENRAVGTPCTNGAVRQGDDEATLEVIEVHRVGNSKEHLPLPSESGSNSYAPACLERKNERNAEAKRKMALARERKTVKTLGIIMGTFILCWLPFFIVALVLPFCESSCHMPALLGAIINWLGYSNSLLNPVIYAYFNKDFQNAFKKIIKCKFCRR
# protocol-description: Binding affinity towards 5-hydroxytryptamine 1A receptor in rat cerebral cortex
# Format: tissue-based
measurement-label: Ki (nM)
Just the number in nM, nothing appended.

Noted for CCOc1ccccc1OCCN1CCN(c2cnn(CCCCCCCN3CCN(c4ccccc4OC(C)C)CC3)c(=O)c2Cl)CC1 : its Ki reads 0.82

---

# measured-target: Adrenergic receptor alpha-2 (Rattus norvegicus) (UniProt P22086+P19328+P22909)
# protocol-description: Selectivity ratio of Alpha-2 adrenergic receptor by Alpha-1 adrenergic receptor in rat cerebral cortex
# Assay type: tissue-based
measurement-label: Selectivity ratio

The reported Adrenergic receptor alpha-2 (Rattus norvegicus) (UniProt P22086+P19328+P22909) Selectivity ratio of CCOc1ccccc1OCCN1CCN(c2cnn(CCCCCCCN3CCN(c4ccccc4OC(C)C)CC3)c(=O)c2Cl)CC1 is 12

---

# measured-target: Adrenergic receptor alpha-2 (Rattus norvegicus) (UniProt P22086+P19328+P22909)
# protocol-description: Selectivity ratio of Alpha-2 adrenergic receptor by Alpha-1 adrenergic receptor in rat cerebral cortex
# Assay type: tissue-based
# note: exactly 5 is not below, so it is criterion not met; use criterion met for Selectivity ratio strictly under it

# count of solved cases: 5
{"smiles-string": "COc1ccccc1OCCN1CCN(c2cnn(CCCCCCCN3CCN(c4ccccc4OC)CC3)c(=O)c2Cl)CC1", "measured-target": "Adrenergic receptor alpha-2 (Rattus norvegicus) (UniProt P22086+P19328+P22909)", "class-label": "criterion met"}
{"smiles-string": "CC(C)Oc1ccccc1N1CCN(CCCCCCCn2ncc(N3CCN(C(=O)c4ccco4)CC3)c(Cl)c2=O)CC1", "measured-target": "Adrenergic receptor alpha-2 (Rattus norvegicus) (UniProt P22086+P19328+P22909)", "class-label": "criterion not met"}
{"smiles-string": "COc1ccccc1N1CCN(CCCCCCCn2ncc(N3CCN(C(=O)c4ccco4)CC3)c(Cl)c2=O)CC1", "measured-target": "Adrenergic receptor alpha-2 (Rattus norvegicus) (UniProt P22086+P19328+P22909)", "class-label": "criterion not met"}
{"smiles-string": "CCOc1ccccc1N1CCN(CCCCCCCn2ncc(N3CCN(C(=O)c4ccco4)CC3)c(Cl)c2=O)CC1", "measured-target": "Adrenergic receptor alpha-2 (Rattus norvegicus) (UniProt P22086+P19328+P22909)", "class-label": "criterion not met"}
{"smiles-string": "CCOc1ccccc1N1CCN(CCCCCCCn2ncc(N3CCN(CCOc4ccccc4OC)CC3)c(Cl)c2=O)CC1", "measured-target": "Adrenergic receptor alpha-2 (Rattus norvegicus) (UniProt P22086+P19328+P22909)", "class-label": "criterion not met"}

Now take the following compound into account.
In: Hello, is Selectivity ratio of the following compound strictly smaller than 5? CCOc1ccccc1OCCN1CCN(c2cnn(CCCCCCCN3CCN(c4ccccc4OC)CC3)c(=O)c2Cl)CC1
Out: criterion met
